# Test system: U87MG tumour cells
# experiment: Test of in vitro proliferation of U87MG tumour cells
# Type: cell-based
# assay_conditions: Homo sapiens, U-87 MG, 72 h, U87MG cells, 72 hours; read-out: U87 Cell Proliferation IC50
pIC50: −log10 of the molar value.
Param threshold (6) applies to pIC50; output Condition met when value >= threshold, Condition not met when value < threshold.

Please indicate if the recorded pIC50 for CCN1CC(C)(C)Oc2nc(N3CC4CCC(C3)O4)nc(-c3ccc(NC(=O)OC[C@@H](C)O)c(F)c3)c2C1=O meets or exceeds 6.
Condition not met

Please indicate if the recorded pIC50 for CCN1CC(C)(C)Oc2nc(N3CC4CCC(C3)O4)nc(-c3ccc(NC(=O)N[C@@H](C)CO)c(F)c3)c2C1=O meets or exceeds 6.
Condition not met

Please indicate if the recorded pIC50 for CCN1CC(C)(C)Oc2nc(N3CCOC[C@@H]3C)nc(-c3ccc(NC(=O)Nc4ccccn4)cc3)c2C1=O meets or exceeds 6.
Condition met

Please indicate if the recorded pIC50 for CCOC(=O)Nc1ccc(-c2nc(N3CC4CCC(C3)O4)nc3c2C(=O)N(CC)CC(C)(C)O3)cc1 meets or exceeds 6.
Condition not met

Please indicate if the recorded pIC50 for CCN1CC(C)(C)Oc2nc(N3CCOC[C@@H]3C)nc(-c3ccc(NC(=O)Nc4ccccn4)c(F)c3)c2C1=O meets or exceeds 6.
Condition not met

Please indicate if the recorded pIC50 for CCN1CC(C)(C)Oc2nc(N3CC4CCC(C3)O4)nc(-c3ccc(NC(=O)Nc4cnc(N(C)C)cn4)c(F)c3)c2C1=O meets or exceeds 6.
Condition not met

Please indicate if the recorded pIC50 for CCN1CC(C)(C)Oc2nc(N3CC4CCC(C3)O4)nc(-c3ccc(NC(=O)Nc4ccon4)c(F)c3)c2C1=O meets or exceeds 6.
Condition met

Please indicate if the recorded pIC50 for CCN1CC(C)(C)Oc2nc(N3CC4CCC(C3)O4)nc(-c3ccc(NC(=O)Nc4ccc(C(=O)N(C)CCN(C)C)cc4)cc3)c2C1=O meets or exceeds 6.
Condition met

Please indicate if the recorded pIC50 for CCN1CC(C)(C)Oc2nc(N3CC4CCC(C3)O4)nc(-c3ccc(NC(=O)Nc4ccc(N5CCCC5)cn4)cc3)c2C1=O meets or exceeds 6.
Condition met
